pIC50: −log10 of the molar value.
Below are compounds with their pIC50 as measured on Farnesyl diphosphate synthase (Trypanosoma cruzi, UniProt Q8WS26).
Sequence (Q8WS26 whole entry): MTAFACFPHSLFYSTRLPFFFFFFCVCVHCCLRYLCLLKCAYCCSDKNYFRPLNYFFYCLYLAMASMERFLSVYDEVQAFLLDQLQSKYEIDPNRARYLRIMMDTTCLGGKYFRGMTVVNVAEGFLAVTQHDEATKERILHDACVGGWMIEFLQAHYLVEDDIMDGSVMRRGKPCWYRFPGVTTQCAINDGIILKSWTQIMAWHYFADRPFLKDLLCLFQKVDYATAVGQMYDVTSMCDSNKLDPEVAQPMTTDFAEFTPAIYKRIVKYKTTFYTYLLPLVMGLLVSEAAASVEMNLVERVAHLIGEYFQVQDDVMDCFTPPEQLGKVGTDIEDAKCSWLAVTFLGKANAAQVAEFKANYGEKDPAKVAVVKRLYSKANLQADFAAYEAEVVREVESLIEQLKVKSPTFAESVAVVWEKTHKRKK

The examples below pair each entry with its known result.
[
  {
    "Compound": "CCCCCCSCC(P(=O)(O)O)P(=O)(O)O",
    "pIC50": "< 5.00"
  },
  {
    "Compound": "CCCCC[S+]([O-])CC(P(=O)(O)O)P(=O)(O)O (stereo not given)",
    "pIC50": "< 5.00"
  }
]

What measured pIC50 goes with CCCCCSCC(P(=O)(O)O)P(=O)(O)O ? < 5.00

What measured pIC50 goes with CCCCCCCC[S+](C)CC(P(=O)(O)O)P(=O)(O)O.F[B-](F)(F)F (stereo not given) ? 7.40

What measured pIC50 goes with CCCCCCCCC[S+]([O-])CC(P(=O)(O)O)P(=O)(O)O (stereo not given) ? < 5.00

What measured pIC50 goes with CCCCCCCCCC[S+]([O-])CC(P(=O)(O)O)P(=O)(O)O (stereo not given) ? < 5.00

What measured pIC50 goes with CCCCCCC[S+]([O-])CC(P(=O)(O)O)P(=O)(O)O (stereo not given) ? < 5.00

What measured pIC50 goes with CCCC[S+]([O-])CC(P(=O)(O)O)P(=O)(O)O (stereo not given) ? < 5.00

What measured pIC50 goes with CCCCCCCCCSCC(P(=O)(O)O)P(=O)(O)O ? 5.77

What measured pIC50 goes with CCCCCS(=O)(=O)CC(P(=O)(O)O)P(=O)(O)O ? < 5.00

What measured pIC50 goes with CCCCCCCSCC(P(=O)(O)O)P(=O)(O)O ? < 5.00

====

Tested target: Farnesyl diphosphate synthase (Toxoplasma gondii, UniProt Q197X6)
Assay details: Inhibition of Toxoplasma gondii farnesyl diphosphate synthase assessed as incorporation of [4-14C]IPP measured at 37 degC
Measured metric: IC50 (nM)
API: value field is a number in nM; no unit string.

[
  {
    "Compound": "CCCCCCCCCSCC(P(=O)(O)O)P(=O)(O)O",
    "Units symbol": "nM",
    "IC50": 25
  },
  {
    "Compound": "CCCCCSCC(P(=O)(O)O)P(=O)(O)O",
    "Units symbol": "nM",
    "IC50": 110
  },
  {
    "Compound": "CCCCCCCC[S+](C)CC(P(=O)(O)O)P(=O)(O)O.F[B-](F)(F)F (stereo not drawn)",
    "Units symbol": "nM",
    "IC50": 13
  },
  {
    "Compound": "CCCCCCCSCC(P(=O)(O)O)P(=O)(O)O",
    "Units symbol": "nM",
    "IC50": 69
  }
]

Field: IC50 (Farnesyl diphosphate synthase (Toxoplasma gondii, UniProt Q197X6)). Entry: CCCCCCCCSCC(P(=O)(O)O)P(=O)(O)O 24

====

Listed here are compounds together with their documented IC50.
Tested target: Farnesyl diphosphate synthase (Toxoplasma gondii, UniProt Q197X6)
Assay details: Inhibition of Toxoplasma gondii farnesyl diphosphate synthase assessed as incorporation of [4-14C]IPP measured at 37 degC

The examples below pair each entry with its known result.
[
  {
    "Compound": "CCCCSCC(P(=O)(O)O)P(=O)(O)O",
    "Tested target": "Farnesyl diphosphate synthase (Toxoplasma gondii, UniProt Q197X6)",
    "IC50": "48 nM"
  },
  {
    "Compound": "CCCCCCSCC(P(=O)(O)O)P(=O)(O)O",
    "Tested target": "Farnesyl diphosphate synthase (Toxoplasma gondii, UniProt Q197X6)",
    "IC50": "307 nM"
  },
  {
    "Compound": "CCCC[S+]([O-])CC(P(=O)(O)O)P(=O)(O)O (configuration not stated)",
    "Tested target": "Farnesyl diphosphate synthase (Toxoplasma gondii, UniProt Q197X6)",
    "IC50": "> 10000 nM"
  },
  {
    "Compound": "CCSCC(P(=O)(O)O)P(=O)(O)O",
    "Tested target": "Farnesyl diphosphate synthase (Toxoplasma gondii, UniProt Q197X6)",
    "IC50": "1830 nM"
  }
]

We now examine a further compound.
What measured IC50 goes with CCCCCCCCC[S+]([O-])CC(P(=O)(O)O)P(=O)(O)O (configuration not stated) ? 56 nM

====

Tested target: UniProt Q8WS26
Assay details: Inhibition of Trypanosoma cruzi farnesyl diphosphate synthase assessed as incorporation of [4-14C]IPP measured at 37 degC
Mark MET only for IC50 values smaller than 800 nM; exact matches and larger values are NOT MET.

Determine if CCCCCCCCSCC(P(=O)(O)O)P(=O)(O)O shows IC50 strictly lower than 800 nM. NOT MET

====

Tested target: Farnesyl diphosphate synthase (Toxoplasma gondii, UniProt Q197X6)
Sequence (Q197X6 whole entry): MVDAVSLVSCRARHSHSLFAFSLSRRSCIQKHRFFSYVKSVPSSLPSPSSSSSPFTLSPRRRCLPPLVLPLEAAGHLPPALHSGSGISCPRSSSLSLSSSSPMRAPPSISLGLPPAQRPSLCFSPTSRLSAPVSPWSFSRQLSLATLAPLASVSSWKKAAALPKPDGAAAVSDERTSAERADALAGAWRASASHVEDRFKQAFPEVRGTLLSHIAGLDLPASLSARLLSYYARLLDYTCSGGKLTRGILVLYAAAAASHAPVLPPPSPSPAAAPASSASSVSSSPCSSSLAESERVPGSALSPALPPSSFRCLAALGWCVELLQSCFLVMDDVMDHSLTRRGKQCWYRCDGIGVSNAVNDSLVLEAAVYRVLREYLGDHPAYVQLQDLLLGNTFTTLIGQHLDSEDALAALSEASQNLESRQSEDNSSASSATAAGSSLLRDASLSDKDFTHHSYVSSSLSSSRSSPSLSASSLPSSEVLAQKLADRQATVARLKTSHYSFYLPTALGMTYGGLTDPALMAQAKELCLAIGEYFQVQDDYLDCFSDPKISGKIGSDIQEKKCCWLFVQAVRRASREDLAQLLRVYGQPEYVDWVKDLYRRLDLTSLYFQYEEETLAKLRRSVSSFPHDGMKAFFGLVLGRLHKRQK
Assay details: Inhibition of Toxoplasma gondii farnesyl diphosphate synthase assessed as incorporation of [4-14C]IPP measured at 37 degC
pIC50: −log10 of the molar value.
Listed here are compounds together with their documented pIC50.

The examples below pair each entry with its known result.
[
  {
    "Compound": "CCCCCCCCCC[S+]([O-])CC(P(=O)(O)O)P(=O)(O)O (stereo not drawn)",
    "pIC50": "< 5.00"
  },
  {
    "Compound": "CCCCCCCNCC(O)(P(=O)(O)O)P(=O)(O)O",
    "pIC50": "< 6.00"
  }
]

What measured pIC50 goes with CCCCCC[S+]([O-])CC(P(=O)(O)O)P(=O)(O)O (stereo not drawn) ? < 5.00

====

Tested target: Farnesyl diphosphate synthase (Toxoplasma gondii, UniProt Q197X6)
Sequence (Q197X6 whole entry): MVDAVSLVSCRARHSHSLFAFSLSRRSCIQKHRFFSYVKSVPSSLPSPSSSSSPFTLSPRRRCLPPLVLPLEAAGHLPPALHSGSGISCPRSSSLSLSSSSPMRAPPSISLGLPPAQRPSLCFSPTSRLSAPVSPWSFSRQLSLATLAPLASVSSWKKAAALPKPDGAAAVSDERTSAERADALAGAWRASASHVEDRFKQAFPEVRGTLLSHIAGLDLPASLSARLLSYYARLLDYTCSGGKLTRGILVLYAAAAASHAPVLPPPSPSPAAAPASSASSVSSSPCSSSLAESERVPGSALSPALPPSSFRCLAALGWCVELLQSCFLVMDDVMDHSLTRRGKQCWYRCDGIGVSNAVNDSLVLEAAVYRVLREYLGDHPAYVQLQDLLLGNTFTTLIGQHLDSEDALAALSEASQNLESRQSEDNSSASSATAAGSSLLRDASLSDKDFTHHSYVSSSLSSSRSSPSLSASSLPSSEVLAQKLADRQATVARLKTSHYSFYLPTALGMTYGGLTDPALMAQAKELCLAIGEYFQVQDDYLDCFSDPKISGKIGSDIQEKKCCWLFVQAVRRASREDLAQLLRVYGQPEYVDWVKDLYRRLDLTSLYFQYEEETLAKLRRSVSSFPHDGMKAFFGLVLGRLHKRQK
Assay details: Inhibition of Toxoplasma gondii farnesyl diphosphate synthase assessed as incorporation of [4-14C]IPP measured at 37 degC
Listed here are compounds together with their documented pIC50.
# reply with the number alone; pIC50 is -log10 of concentration in mol/L

Field: pIC50 (Farnesyl diphosphate synthase (Toxoplasma gondii, UniProt Q197X6)). Entry: CCCCCCCC[S+]([O-])CC(P(=O)(O)O)P(=O)(O)O (configuration not stated) 7.80

Field: pIC50 (Farnesyl diphosphate synthase (Toxoplasma gondii, UniProt Q197X6)). Entry: CCCCCCC[S+]([O-])CC(P(=O)(O)O)P(=O)(O)O (configuration not stated) 8.05

Field: pIC50 (Farnesyl diphosphate synthase (Toxoplasma gondii, UniProt Q197X6)). Entry: CCCCCCCCCCSCC(P(=O)(O)O)P(=O)(O)O 7.68

Field: pIC50 (Farnesyl diphosphate synthase (Toxoplasma gondii, UniProt Q197X6)). Entry: CCCSCC(P(=O)(O)O)P(=O)(O)O 7.18
